# tgt: CRBN truncate (318-426) (Homo sapiens (Human))
# Sequence (Q96SW2 318-426): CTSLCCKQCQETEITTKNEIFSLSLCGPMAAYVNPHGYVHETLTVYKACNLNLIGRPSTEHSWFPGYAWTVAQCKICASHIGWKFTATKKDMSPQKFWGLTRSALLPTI
# procedure-summary: Measurement of molecular interactions using surface plasmon resonance (SPR), Biacore T200
# condition-summary: 25° C., immobilized CRBN truncate, upper limit of measurement 200 μM
pKd: −log10 of the molar value.
value-kind: pKd

Example entries begin here.
// query Which pKd is reported for this molecule? Cc1sc2c(c1C)C(c1ccc(Cl)cc1)=N[C@@H](CC(=O)NCCCCCCCCNC(=O)CCc1cccc3c(=O)n(C4CCCC(=O)NC4=O)ccc13)c1nnc(C)n1-2 (stereo partly drawn) [Example 343]
// result > 4.30

// query Which pKd is reported for this molecule? COc1cccc2c1ccc(=O)n2C1CCCC(=O)NC1=O (stereo not drawn) [Example 258]
// result ≤ 4.00

Further cases:
// query Which pKd is reported for this molecule? COC(=O)c1cc2c(N3CCC4(CCCC(=O)NC4=O)C3)ncnc2n1C (stereo not drawn) [Example 36]
// result > 4.30

// query Which pKd is reported for this molecule? Cc1sc2c(c1C)C(c1ccc(Cl)cc1)=N[C@@H](CC(=O)NCCCCCCCCNC(=O)c1ccc3nc(N4CC5(CC(=O)N(C6CCC(=O)NC6=O)C5=O)C4)sc3c1)c1nnc(C)n1-2 (stereo partly drawn) [Example 337]
// result > 4.30

// query Which pKd is reported for this molecule? CC(C)(C)OC(=O)CCc1ccc2c(c1)sc(=O)n2C1CCCC(=O)NC1=O (stereo not drawn) [Example 262]
// result 4.00 to 4.30

// query Which pKd is reported for this molecule? CC(C)(C)OC(=O)COc1cnc(N2CC3(CC(=O)N(C4CCC(=O)NC4=O)C3=O)C2)nc1 (stereo not drawn) [Example 234]
// result ≤ 4.00

// query Which pKd is reported for this molecule? O=C1CCCN(c2ccc3ncccc3c2)C(=O)N1 [Example 117, 1-Quinolin-6-yl-1,3-diazepane-2,4-dione]
// result ≤ 4.00

// query Which pKd is reported for this molecule? NC(=O)c1nn(-c2ccc(C(=O)NCCOCCOCCNC(=O)c3ccnc(N4CCC5(CCCC(=O)NC5=O)C4)c3)cc2)cc1NC(=O)c1coc(-c2ccnc(NCC3CC3)c2)n1 (stereo not drawn) [Example 142]
// result > 4.30

// query Which pKd is reported for this molecule? CC(C)(C)OC(=O)NCCCCCCCNc1ccc2nc(N3CCCC(=O)NC3=O)sc2c1 [Example 303]
// result ≤ 4.00

// query Which pKd is reported for this molecule? CC(C)(C)OC(=O)Nc1ccc(-c2cn(C3CCCC(=O)NC3=O)nn2)cc1 (stereo not drawn) [Example 3]
// result ≤ 4.00

// query Which pKd is reported for this molecule? CC(C)(C)OC(=O)NCCCCCCCc1cn(C2CCCC(=O)NC2=O)nn1 (stereo not drawn) [Example 147]
// result ≤ 4.00

// query Which pKd is reported for this molecule? CC(C)(C)OC(=O)c1ccc(N2CC[C@@]3(CCCC(=O)NC3=O)CC2=O)cc1 [Example 224]
// result ≤ 4.00
